Measured AC50, listed per entry for reference.
target: Cytochrome P450 2C19 (Homo sapiens); assay: Cytochrome panel assay with activity outcomes. Panel member name: p450-cyp2c19 Compounds with AC50 equal or less than 10 uM are considered active; type: functional; conditions: read-out: AC50
Sequence (P33261 whole entry): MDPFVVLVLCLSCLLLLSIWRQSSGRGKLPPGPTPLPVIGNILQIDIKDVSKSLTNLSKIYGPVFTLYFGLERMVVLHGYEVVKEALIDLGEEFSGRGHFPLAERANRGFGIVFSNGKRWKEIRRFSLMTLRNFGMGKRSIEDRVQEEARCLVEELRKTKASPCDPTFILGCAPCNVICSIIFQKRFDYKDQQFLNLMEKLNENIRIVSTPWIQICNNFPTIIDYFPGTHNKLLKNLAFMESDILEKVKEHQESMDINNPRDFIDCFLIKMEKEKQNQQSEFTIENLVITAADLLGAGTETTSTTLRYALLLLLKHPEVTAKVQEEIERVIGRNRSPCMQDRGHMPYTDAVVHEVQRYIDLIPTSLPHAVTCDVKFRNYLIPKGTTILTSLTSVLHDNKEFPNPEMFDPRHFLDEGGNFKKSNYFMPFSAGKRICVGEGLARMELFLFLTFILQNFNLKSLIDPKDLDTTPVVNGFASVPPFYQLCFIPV

stdin: Any idea what AC50 was measured for "CCOC(=O)c1c(-c2ccccc2)nc2ccccn12" ?
stdout: 25.1 µM (inconclusive)

stdin: Okay, and CN(C)c1cc2c(Nc3ccc4c(cnn4Cc4ccccc4)c3)ncnc2cn1 [GW282974X] ?
stdout: 25.1 µM (inconclusive)

stdin: Okay, and CC(CC(=O)Nc1ccc(Cl)c([N+](=O)[O-])c1)c1ccccc1 (stereo unspecified) ?
stdout: 2.51 µM (inconclusive)

stdin: Okay, and "C=CC[C@@H]1C=C[C@H](O/N=C2\c3cc(OC)ccc3O[C@H](c3cccc(OC)c3)[C@H]2O)[C@H](CO)O1" ?
stdout: 3.16 µM (inconclusive)

stdin: Okay, and CCC12C=CCN3CCC4(c5cc(Br)c(OC)cc5N(C)C4C(O)(C(=O)OC)C1OC(C)=O)C32 (stereo unspecified) ?
stdout: 11.2 µM (inconclusive)

* * *

Recorded AC50 values (Cytochrome P450 3A4 (Homo sapiens, UniProt P08684)) are given below.

Illustrative cases are given below, each with its answer.
{"columns": ["molecular_string", "measured_value"],
 "data": [
  ["Cc1ccc(Cc2c(C)nc3nc(SCC(=O)NCc4ccco4)nn3c2C)cc1", "3.16 µM (inconclusive)"],
  ["CCOc1ccc(-c2nnc3ccc(SCC(=O)NCc4ccco4)nn23)cc1", "7.94 µM (inconclusive)"],
  ["O=C(Nc1ccc(Cl)cc1C(=O)c1ccccc1)c1ccco1", "22.4 µM (inconclusive)"],
  ["C[C@]1(C2CCCC2)Cc2cc(OCC(=O)O)c(Cl)c(Cl)c2C1=O", "12.6 µM (inconclusive)"]
]}

stdin: Any idea what AC50 was measured for "COC(=O)c1ccc(Oc2cc(C)nc(-n3nc(C)cc3C)n2)cc1" ?
stdout: 39.8 µM (inconclusive)

* * *

Target: RNA-binding protein pos-1 (Caenorhabditis elegans, UniProt G5EF15)
Sequence (G5EF15 whole entry): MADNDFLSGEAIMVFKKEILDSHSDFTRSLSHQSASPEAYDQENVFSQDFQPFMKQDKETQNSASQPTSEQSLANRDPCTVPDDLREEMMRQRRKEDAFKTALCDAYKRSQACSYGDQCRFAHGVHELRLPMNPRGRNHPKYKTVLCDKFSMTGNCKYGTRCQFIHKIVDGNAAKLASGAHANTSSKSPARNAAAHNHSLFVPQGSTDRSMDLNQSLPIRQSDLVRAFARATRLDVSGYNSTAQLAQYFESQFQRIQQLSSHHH
Test: disruptors of C. elegans POS-1 RNA interaction – biochemical, fluorescence polarization, dose response (AID 1964);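 note: purified POS-1 fused to maltose binding protein made in E. coli; potency of compounds blocking POS-1 binding to fluorescent RNA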
The source made the active and inactive calls.
Measured EC50, listed per entry for reference.

{"columns": ["molecular_string", "reported_metric", "measured_value"],
 "data": [
  ["Cc1ccccc1NC1=NC(=O)/C(=C/c2cccn2-c2cccc(C(=O)O)c2)S1", "EC50", "> 300 µM (not active)"],
  ["COc1cc2c3nnc(-c4ccccc4)c-3cn(Cc3ccc(F)cc3)c2cc1OC", "EC50", "> 300 µM (not active)"],
  ["CC1=C(C#N)C(=O)N(C)C(=O)/C1=C\\NNc1ccc(C)c(C)c1", "EC50", "> 300 µM (not active)"]
]}

Now examine the next entry.
stdin: Any idea what EC50 was measured for "Cc1cc(C=C2C(=O)N(C)C(=S)N(C)C2=O)c(C)n1C1CCCC1" ?
stdout: 189 µM (active)
